Target: T1, Full length human TfR on CHO cells (human, UniProt P02786 1-760)
T1 construct: also called CHO + huTfR; CHO + hTfR
T1 sequence (P02786 whole entry): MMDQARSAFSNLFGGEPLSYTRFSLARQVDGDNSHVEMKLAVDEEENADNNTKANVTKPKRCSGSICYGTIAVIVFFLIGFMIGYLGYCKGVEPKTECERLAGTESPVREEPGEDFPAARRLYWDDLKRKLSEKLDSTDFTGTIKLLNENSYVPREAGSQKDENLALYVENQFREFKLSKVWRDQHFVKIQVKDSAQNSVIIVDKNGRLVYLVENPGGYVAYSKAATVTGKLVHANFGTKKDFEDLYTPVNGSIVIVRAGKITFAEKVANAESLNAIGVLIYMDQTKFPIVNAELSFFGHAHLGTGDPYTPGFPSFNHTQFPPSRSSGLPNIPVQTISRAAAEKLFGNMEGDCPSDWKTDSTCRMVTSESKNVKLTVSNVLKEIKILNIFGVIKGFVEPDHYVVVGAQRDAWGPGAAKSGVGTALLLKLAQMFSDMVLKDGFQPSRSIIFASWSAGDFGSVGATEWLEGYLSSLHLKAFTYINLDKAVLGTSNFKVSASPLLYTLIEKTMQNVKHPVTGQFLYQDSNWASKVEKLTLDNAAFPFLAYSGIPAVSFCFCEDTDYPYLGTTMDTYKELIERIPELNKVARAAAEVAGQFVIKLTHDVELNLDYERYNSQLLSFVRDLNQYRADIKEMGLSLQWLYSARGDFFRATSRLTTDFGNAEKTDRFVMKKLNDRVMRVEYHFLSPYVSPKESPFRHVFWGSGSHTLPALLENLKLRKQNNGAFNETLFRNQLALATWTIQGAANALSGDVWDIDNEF
Experiment: FACS MFI, supernatant
Reported metric: fold over parental (CHO WT) (fold)
Unit fold implied. Number only.

// worked examples, fold over parental (CHO WT) included
binder="TfR32 (mouse hybridoma antibody) (antibody, V domains shown, mouse IgG in hybridoma supernatant) VH: QVQLQQSGADLVRPGTSVKVSCKASGNAFSNYLIEWVKQRPGQGLEWIGVINPGSGETNYNEKFKGKATLTADKSSSTAYMQLSSLTSDDSAVYFCAIRYDGPLLDHWGQGTSVTVSS VL: SIVMTQTPKFLLVSAGDRVTITCKASQSVSNDVAWFQQKPGQSPKLLIYYASNRYTGVPDRFTGSGYGTDFTFTIRNVQAEDLAVYFCQQDYISPTFGAGTKLELK" measurement=137
binder="TfR5 (mouse hybridoma antibody) (antibody, V domains shown, mouse IgG in hybridoma supernatant) VH: QVQLQQSGPELVKPGASVKMSCKASGYTFTNYYIHWVKQRPGQGLEWIGWIYPGDGNTNYNEKFKGKTTLTADKSSSTAYMLLSSLTSEDSAIYFCARDGSSAPKFTYWGQGTLVTVSA VL: DIVMTQSPSSLTVTAGEKVTMRCKSSQSLLNSGNQKNYLTWYQQKPGQPPKLLFYWASTRESGVPDRFTGSGSGTDFTLTISSVQAEDLAVYYCQNDYSYPLTFGAGTKLELK" measurement=561

## Input Using known records, supply fold over parental (CHO WT) for TfR15 (mouse hybridoma antibody) (antibody, V domains shown, mouse IgG in hybridoma supernatant) VH: QVQLQQPGSELVRPGASVKLSCKASGYTFTSYWMHWVKQRPGQGLEWIGNIYPGSGSSNYDEKFKSKATLTVDTSSSTAYMQLNSLTSEDSAVYYCTRSSYYGNFDTMDNWGQGTSVTVSS VL: QIVLTQSPAIMSASPGEKVTMTCSASSSIRYMNWYQQKPVTSPKRWIYDTSTLASGVPARFSGSGSGTSYSLTISSMEAEDAATYYCHQRSSYPWTFGGGTKLEIK
## Output 119
